meta.source: paper PMC4017264

B1: HOIP extended PUB domain (aa 1–184) [not stated] / FITC-Ahx-labeled OTULIN PIM peptide (aa 49–67) [modified: FITC-Ahx label; FITC-Ahx label] [not stated] (parent complex)
chain 1: MPGEEEERAFLVAREELASALRRDSGQAFSLEQLRPLLASSLPLAARYLQLDAARLVRCNAHGEPRNYLNTLSTALNILEKYGRNLLSPQRPRYWRGVKFNNPVFRSTVDAVQGGRDVLRLYGYTEEQPDGLSFPEGQEEPDEHQVATVTLEVLLLRTELSLLLQNTHPRQQALEQLLEDKVED
chain 2: AEHEEDMYRAADEIEKEKE

Variants of: B1
Assay: fluorescence polarisation; triplicate
Task for the reader: assign each of the following variants its reported pKd.
Please keep in mind that pKd is minus log10 of the molar concentration; only the number is needed.

Query block: Find the recorded pKd belonging to chain 2 Y8F and report it.
Result block: 4.19

Query block: Now consider chain 2 D6A .
Result block: 4.95

Query block: Try this variant too: chain 2 Y8W
Result block: 4.67
